Target: Prostaglandin G/H synthase 1 (Homo sapiens, UniProt P23219); further: assay procedure not described here
Sequence (P23219 whole entry): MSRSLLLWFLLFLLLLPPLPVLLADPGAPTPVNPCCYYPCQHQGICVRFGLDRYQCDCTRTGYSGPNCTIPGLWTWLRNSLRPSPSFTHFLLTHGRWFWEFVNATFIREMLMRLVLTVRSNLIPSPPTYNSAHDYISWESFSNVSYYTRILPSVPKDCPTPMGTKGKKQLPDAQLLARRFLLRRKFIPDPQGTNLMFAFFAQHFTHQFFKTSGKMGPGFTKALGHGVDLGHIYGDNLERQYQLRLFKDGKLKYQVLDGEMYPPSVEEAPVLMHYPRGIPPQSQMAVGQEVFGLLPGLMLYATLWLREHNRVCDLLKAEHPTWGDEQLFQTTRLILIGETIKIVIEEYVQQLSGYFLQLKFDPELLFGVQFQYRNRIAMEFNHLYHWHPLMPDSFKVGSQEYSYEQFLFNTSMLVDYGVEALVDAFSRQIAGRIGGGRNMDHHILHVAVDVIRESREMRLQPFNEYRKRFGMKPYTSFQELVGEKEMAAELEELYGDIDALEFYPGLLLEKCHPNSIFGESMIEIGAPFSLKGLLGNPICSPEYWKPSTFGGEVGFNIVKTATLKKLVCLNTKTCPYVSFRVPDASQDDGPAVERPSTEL
Format: functional
readout_type: AC50

As a guide, the following entries are already answered.
compound: CC(O)(CS(=O)(=O)c1ccc(F)cc1)C(=O)Nc1ccc(C#N)c(C(F)(F)F)c1 (configuration not stated) [BICALUTAMIDE]
AC50: > 30 µM

compound: COc1ccc2c(C(=S)N(C)CC(=O)O)cccc2c1C(F)(F)F
AC50: > 30 µM

compound: C[C@H]1O[C@@H](O[C@H]2CC[C@@]3(C)[C@H](CC[C@@H]4[C@@H]3C[C@@H](O)[C@]3(C)[C@@H](C5=CC(=O)OC5)CC[C@]43O)C2)C[C@H](O)[C@@H]1O[C@H]1C[C@H](O)[C@H](O[C@H]2C[C@H](O)[C@H](O[C@@H]3O[C@H](CO)[C@@H](O)[C@H](O)[C@H]3O)[C@@H](C)O2)[C@@H](C)O1 [DESLANOSIDE]
AC50: > 30 µM

compound: COc1ccc2[nH]c([S+]([O-])Cc3ncc(C)c(OC)c3C)nc2c1 (configuration not stated)
AC50: 5.76 µM

compound: C[N+](C)(C)CCOC(=O)CCC(=O)OCC[N+](C)(C)C
AC50: > 30 µM

compound: C[C@H](N[C@@H](CCc1ccccc1)C(=O)O)C(=O)N1Cc2ccccc2C[C@H]1C(=O)O
AC50: > 30 µM

Ask: Recorded AC50 for `C=N[C@@H](C(=O)N[C@@H]1C(=O)N2[C@@H]1SC(C)(C)[C@@H]2C(=O)O)c1ccccc1` , please?
Result: 9.26 µM
